Would you mind telling me the reported TGI of each entry?
Test system: SK-MEL-5 melanoma
Experiment: NCI tumour cell line growth inhibition, 48 h

input: For the molecule shown here, O=CC1C(=O)Nc2nc3ccccc3n2C1c1ccccc1 (stereo unspecified) , give the reported TGI.
output: 28.7 µM

input: For the molecule shown here, `CN=C(NC#N)NCc1ccccc1` , give the reported TGI.
output: > 100 µM

input: For the molecule shown here, `Cc1cnc2n(c1=O)Cc1ccccc1CO2` , give the reported TGI.
output: 29.5 µM

input: For the molecule shown here, `Cc1ccc(Sc2cc([N+](=O)[O-])cc(Sc3ccc(C)cc3)c2Sc2ccc(C)cc2)cc1` , give the reported TGI.
output: > 100 µM

input: For the molecule shown here, `COc1ccc2c(c1)[n+](=O)c(C(=O)C/C(=N\NC(=O)C[N+](C)(C)C)C(=O)Nc1cc(Cl)ccc1Cl)c(C)n2O` , give the reported TGI.
output: > 100 µM

input: For the molecule shown here, `CNC(=S)c1nnsc1N` , give the reported TGI.
output: > 100 µM

###

Test system: BT-549 breast
Assay: NCI tumour cell line growth inhibition, 48 h; in the data active = GI50 below about 0.43 µM; inactive = the rest
Please reply with one of these outcomes: active, inactive

input: Record lookup: outcome of this test for `C=CCOc1ccc2c(c1)CC[C@@H]1[C@@H]2CC[C@]2(C)C(=O)/C(=N/O)C[C@@H]12` ?
output: inactive

input: Record lookup: outcome of this test for COc1ccc(/C=N/C2=C(C#N)C(c3ccccc3)c3ccc4ccccc4c3O2)cc1 (stereo not drawn) ?
output: inactive

input: Record lookup: outcome of this test for `COc1ccc2c(c1)cn1c3ccc(OC)cc3[nH]c(=O)c21` ?
output: active

input: Record lookup: outcome of this test for COc1ccc2nc3c(cc2c1)C(=O)CC(C(F)(F)F)C3 (stereo not drawn) ?
output: inactive

input: Record lookup: outcome of this test for `COc1cccc(-c2nn(C)c3sc(C(=O)NCCN4CCN(c5ccccc5F)CC4)cc23)c1` ?
output: inactive

input: Record lookup: outcome of this test for `O=c1c(-c2nc3ccccc3[nH]2)cc2ccccc2n1Cc1cn(Cc2ccc(F)cc2)nn1` ?
output: active

input: Record lookup: outcome of this test for `COc1cc(-c2nc3cc(Cl)c(Cl)cc3[nH]2)ccc1OCC(=O)N=Nc1c(O)[nH]c2ccccc12` ?
output: inactive

input: Record lookup: outcome of this test for `O=C1COCCN1c1ccc(NCc2cn(Cc3ccc(F)cc3)c3ccccc23)cc1` ?
output: inactive

input: Record lookup: outcome of this test for `c1ccc(Oc2cnc3ccccc3n2)cc1` ?
output: inactive

input: Record lookup: outcome of this test for NC(CSC(c1ccccc1)(c1ccccc1)c1ccc(Br)cc1)C(=O)O (stereo not drawn) ?
output: inactive

input: Record lookup: outcome of this test for `CCCCCCCCCCCC(=O)[O][Sn]([CH2]CCC)([CH2]CCC)[CH2]CCC` ?
output: active

input: Record lookup: outcome of this test for `COc1ccc(-n2cc(-c3ccc(F)cc3)[nH]c2=O)cc1OC` ?
output: inactive

input: Record lookup: outcome of this test for `CCCCCCOc1ccc(/C=N/Nc2cc(C)nc3ccc(Br)cc23)cc1` ?
output: inactive

###

Test system: BT-549 breast
Assay: NCI tumour cell line growth inhibition, 48 h
Would you mind telling me the reported TGI of each entry?

input: For the compound shown here, CC1(C)C/C=C\CCC(O)C(O)CCC(C)(C)C1=O (stereo unspecified) , give the reported TGI.
output: > 100 µM

input: For the compound shown here, `Nc1nc(-c2ccccc2Cl)cc(-c2ccc(Cl)cc2Cl)n1` , give the reported TGI.
output: > 100 µM

input: For the compound shown here, `COc1ccc(-c2nc3ccccc3c(=O)[nH]2)cc1OC` , give the reported TGI.
output: > 100 µM

input: For the compound shown here, `CCN(CC)C(=O)N1CN(c2ccccc2)C2(CCN(CCCC3(c4ccc(F)cc4)OCCO3)CC2)C1=O` , give the reported TGI.
output: 28.9 µM

input: For the compound shown here, NC(CSC(c1ccccc1)(c1ccccc1)c1ccc(Br)cc1)C(=O)O (stereo unspecified) , give the reported TGI.
output: > 57 µM

input: For the compound shown here, COc1cc(C2C(Cl)C(=O)N2NC(=O)c2ccccc2O)cc(OC)c1OC (stereo unspecified) , give the reported TGI.
output: > 10 µM
